subject-of-test: T1, soluble hG-CSFR: amino acids 25-335 of Homo sapiens G-CSFR with mutations C78A, C163S and C228S and a … (Homo sapiens, UniProt Q99062 25-335)
T1 chain: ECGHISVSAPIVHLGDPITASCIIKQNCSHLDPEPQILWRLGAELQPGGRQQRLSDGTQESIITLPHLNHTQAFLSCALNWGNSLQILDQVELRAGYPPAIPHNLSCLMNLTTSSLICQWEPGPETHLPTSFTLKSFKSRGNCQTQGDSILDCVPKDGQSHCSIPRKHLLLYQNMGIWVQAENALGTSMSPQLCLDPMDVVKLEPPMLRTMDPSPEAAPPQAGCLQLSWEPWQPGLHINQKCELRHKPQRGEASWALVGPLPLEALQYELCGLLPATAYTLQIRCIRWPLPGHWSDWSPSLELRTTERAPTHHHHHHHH
protocol-description: SPR (Biacore), mAb captured by anti-human IgG, soluble hG-CSFR injected
quantity-kind: Kd (pM)
The reply should contain only the number, in pM.

C1.2G-975 (antibody, human IgG4, V domains shown, also called antibody 975) VH: EVQLLESGGGLVQPGGSLRLSCAASGFTFSLYWMGWVRQAPGKGLEWVSSISSSGGVTPYADSVKGRFTISRDNSKNTLYLQMNSLRAEDTAVYYCAKLGELGQSMLWGQGTLVTVSS VL: DIQMTQSPSSLSASVGDRVTITCRASQGISSYLNWYQQKPGKAPKLLIYYASNLQNGVPSRFSGSGSGTDFTLTISSLQPEDFATYYCQQSWQIKLKFGGGTKVEIK : 209

Query string: What Kd value was documented for this binder, C1.2G-996 (antibody, human IgG4, V domains shown, also called antibody 996) VH: EVQLLESGGGLVQPGGSLRLSCAASGFTFSLYWMGWVRQAPGKGLEWVSSISSSGGVTPYADSVKGRFTISRDNSKNTLYLQMNSLRAEDTAVYYCAKLGELGQYMGWGQGTLVTVSS VL: DIQMTQSPSSLSASVGDRVTITCRASQGISSYLNWYQQKPGKAPKLLIYYASNLQNGVPSRFSGSGSGTDFTLTISSLQPEDFATYYCQQSMWMPIFFGGGTKVEIK ?
Result string: 336

Query string: Field entry: C1.2G-967 (antibody, human IgG4, V domains shown, also called antibody 967) VH: EVQLLESGGGLVQPGGSLRLSCAASGFTFSLYWMGWVRQAPGKGLEWVSSISSSGGVTPYADSVKGRFTISRDNSKNTLYLQMNSLRAEDTAVYYCAKLGELGMYDLWGQGTLVTVSS VL: DIQMTQSPSSLSASVGDRVTITCRASQGISSYLNWYQQKPGKAPKLLIYYASNLQNGVPSRFSGSGSGTDFTLTISSLQPEDFATYYCQQSWAYGLSFGGGTKVEIK
Result string: 134

Query string: Field entry: C1.2G-77 (antibody, human IgG4, V domains shown, HCDR3 wt (VH of C1.2G); also called antibody 77) VH: EVQLLESGGGLVQPGGSLRLSCAASGFTFSLYWMGWVRQAPGKGLEWVSSISSSGGVTPYADSVKGRFTISRDNSKNTLYLQMNSLRAEDTAVYYCAKLGELGWFDPWGQGTLVTVSS VL: DIQMTQSPSSLSASVGDRVTITCRASQGISSYLNWYQQKPGKAPKLLIYYASNLQNGVPSRFSGSGSGTDFTLTISSLQPEDFATYYCEQGWNYPLTFGGGTKVEIK
Result string: 107

Query string: Field entry: C1.2G-984 (antibody, human IgG4, V domains shown, also called antibody 984) VH: EVQLLESGGGLVQPGGSLRLSCAASGFTFSLYWMGWVRQAPGKGLEWVSSISSSGGVTPYADSVKGRFTISRDNSKNTLYLQMNSLRAEDTAVYYCAKLGELGMMQSWGQGTLVTVSS VL: DIQMTQSPSSLSASVGDRVTITCRASQGISSYLNWYQQKPGKAPKLLIYYASNLQNGVPSRFSGSGSGTDFTLTISSLQPEDFATYYCQQSIEYPAHFGGGTKVEIK
Result string: 250

Query string: Field entry: C1.2G-994 (antibody, human IgG4, V domains shown, also called antibody 994) VH: EVQLLESGGGLVQPGGSLRLSCAASGFTFSLYWMGWVRQAPGKGLEWVSSISSSGGVTPYADSVKGRFTISRDNSKNTLYLQMNSLRAEDTAVYYCAKLGELGQFMDWGQGTLVTVSS VL: DIQMTQSPSSLSASVGDRVTITCRASQGISSYLNWYQQKPGKAPKLLIYYASNLQNGVPSRFSGSGSGTDFTLTISSLQPEDFATYYCQQSLEYPQMFGGGTKVEIK
Result string: 170

Query string: Field entry: C1.2G-94 (antibody, human IgG4, V domains shown, HCDR3 wt (VH of C1.2G); also called antibody 94) VH: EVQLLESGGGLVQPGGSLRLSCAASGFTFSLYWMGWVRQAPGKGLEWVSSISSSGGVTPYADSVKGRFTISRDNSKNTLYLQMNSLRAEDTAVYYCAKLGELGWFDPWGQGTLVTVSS VL: DIQMTQSPSSLSASVGDRVTITCRASQGISSYLNWYQQKPGKAPKLLIYYASNLQNGVPSRFSGSGSGTDFTLTISSLQPEDFATYYCQQSWVYPAWFGGGTKVEIK
Result string: 189

Query string: Field entry: C1.2G-989 (antibody, human IgG4, V domains shown, also called antibody 989) VH: EVQLLESGGGLVQPGGSLRLSCAASGFTFSLYWMGWVRQAPGKGLEWVSSISSSGGVTPYADSVKGRFTISRDNSKNTLYLQMNSLRAEDTAVYYCAKLGELGQYMFWGQGTLVTVSS VL: DIQMTQSPSSLSASVGDRVTITCRASQGISSYLNWYQQKPGKAPKLLIYYASNLQNGVPSRFSGSGSGTDFTLTISSLQPEDFATYYCQQSFYYPFYFGGGTKVEIK
Result string: 144

Query string: Field entry: C1.2G-43 (antibody, human IgG4, V domains shown, also called antibody 43) VH: EVQLLESGGGLVQPGGSLRLSCAASGFTFSLYWMGWVRQAPGKGLEWVSSISSSGGVTPYADSVKGRFTISRDNSKNTLYLQMNSLRAEDTAVYYCAKLGELGQFMRWGQGTLVTVSS VL: DIQMTQSPSSLSASVGDRVTITCRASQGISSYLNWYQQKPGKAPKLLIYYASNLQNGVPSRFSGSGSGTDFTLTISSLQPEDFATYYCQQSIGYPGSFGGGTKVEIK
Result string: 336

Query string: Field entry: C1.2G-83 (antibody, human IgG4, V domains shown, HCDR3 wt (VH of C1.2G); also called antibody 83) VH: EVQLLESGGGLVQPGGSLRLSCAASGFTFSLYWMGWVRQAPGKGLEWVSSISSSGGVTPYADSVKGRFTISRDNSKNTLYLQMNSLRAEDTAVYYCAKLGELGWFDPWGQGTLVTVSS VL: DIQMTQSPSSLSASVGDRVTITCRASQGISSYLNWYQQKPGKAPKLLIYYASNLQNGVPSRFSGSGSGTDFTLTISSLQPEDFATYYCQQSWMYALFFGGGTKVEIK
Result string: 66
